Test system: rhinovirus B14
Assay: Antiviral activity against human rhinovirus 14 assessed as reduction in viral infection in human HeLa H1 cells pretreated for 1 to 2 hrs with virus followed by cell addition measured after 48 hrs by Celltiter-Glo reagent based assay
Assay type: functional, organism-based
Conditions: Rhinovirus B
observable: pEC50
Please report pEC50 as the negative decimal logarithm of the molar concentration, giving only the number.

What the record says about CCOC(=O)/C=C/[C@H](C[C@@H]1CCNC1=O)NC(=O)[C@@H]1C[C@@H](c2ccccc2)CN1C(=O)[C@@H](NC(=O)c1cc(C)on1)C(C)C : pEC50 is 7.89

What the record says about CCOC(=O)/C=C/[C@H](C[C@@H]1CCNC1=O)NC(=O)[C@@H]1C[C@@H](C2CCCCC2)CN1C(=O)[C@@H](NC(=O)c1cc(C)on1)C(C)C : pEC50 is 7.96

What the record says about CCOC(=O)/C=C/[C@H](C[C@@H]1CCNC1=O)NC(=O)[C@@H]1CCCN1C(=O)[C@@H](NC(=O)c1cc(C)on1)C(C)C : pEC50 is 6.33

What the record says about CCOC(=O)/C=C/[C@H](C[C@@H]1CCNC1=O)NC(=O)[C@@H]1[C@@H](c2ccccc2)CCN1C(=O)[C@@H](NC(=O)c1cc(C)on1)C(C)C : pEC50 is 5.60

What the record says about CCOC(=O)/C=C/[C@H](C[C@@H]1CCNC1=O)NC(=O)[C@@H]1[C@@H](c2ccccc2)CN1C(=O)[C@@H](NC(=O)c1cc(C)on1)C(C)C (stereo in doubt; 10) : pEC50 is 7.04
